Source: PubChem BioAssay (NCI)

Listed compounds paired with reported TGI
Tested on: SF-268 CNS
Assay: NCI tumour cell line growth inhibition, 48 h
readout-type: TGI (µM)

{"compound": "N[C@H]1CCc2c1nc1c(c2-c2ccccc2)CC[C@@H]1N", "readout-type": "TGI", "measurement-qualifier": "=", "experimental-value": 59.8}
{"compound": "O=C1c2ccccc2N2OC3C4CCC(C4)C3C12c1ccccc1 (stereo not drawn)", "readout-type": "TGI", "measurement-qualifier": ">", "experimental-value": 100}
{"compound": "CC(C)Nc1n[nH]c(=O)n1C(C)C", "readout-type": "TGI", "measurement-qualifier": ">", "experimental-value": 100}
{"compound": "COc1ccc(C(F)(F)F)cc1NC(=O)O/N=C(/Cl)C(C)C", "readout-type": "TGI", "measurement-qualifier": "=", "experimental-value": 53.7}
{"compound": "COc1cc(/C=C\\c2cc(/C=C\\c3ccc(O)c(OC)c3)n(C(=O)Nc3ccc(C(F)(F)F)cc3)n2)ccc1O", "readout-type": "TGI", "measurement-qualifier": "=", "experimental-value": 15.4}
{"compound": "CCOC(=O)c1c(SCC#N)n(-c2ccccc2)c(=S)n(-c2ccccc2)c1=O", "readout-type": "TGI", "measurement-qualifier": ">", "experimental-value": 100}
{"compound": "COc1ccc2c(CCNS(=O)(=O)c3ccccc3)c(C(C)=O)[nH]c2c1[N+](=O)[O-]", "readout-type": "TGI", "measurement-qualifier": ">", "experimental-value": 100}
{"compound": "COc1ccc(OC)c2c1C(=O)C(Cl)=C(Cl)C2=O", "readout-type": "TGI", "measurement-qualifier": "=", "experimental-value": 27}

----------
Test system: HS 578T breast
Experiment: NCI tumour cell line growth inhibition, 48 h; in the data active means GI50 below about 0.43 µM; inactive means the rest
Labels: active, inactive

{"compound-structure": "CCOc1ccc2c(-c3ccnc(Nc4cccc(C(F)(F)F)c4)n3)cnn2n1", "target-entity": "HS 578T breast", "discrete-label": "inactive"}
{"compound-structure": "COc1ccc(-c2ccc(=O)oc2-c2cc(OC)c(OC)c(OC)c2)cc1O", "target-entity": "HS 578T breast", "discrete-label": "active"}
{"compound-structure": "COc1cc2c3c(n(CCCn4cccn4)c(=O)c2cc1OC)-c1cc2c(cc1C3=O)OCO2", "target-entity": "HS 578T breast", "discrete-label": "inactive"}
{"compound-structure": "CN([N-]C(=O)CC(=O)[N-]N(C)C(=S)c1ccccc1)C(=S)c1ccccc1.[Cu+2]", "target-entity": "HS 578T breast", "discrete-label": "active"}
{"compound-structure": "COc1ccc(CNCCCN2C(=O)c3ccc4c5c(ccc(c35)C2=O)C(=O)N(CCCNCCCCNCCCN)C4=O)c(OC)c1OC", "target-entity": "HS 578T breast", "discrete-label": "inactive"}
{"compound-structure": "CCCCCCCCOC(=O)c1cc(O)c(O)c(O)c1", "target-entity": "HS 578T breast", "discrete-label": "inactive"}

----------
System: ACHN renal
Assay: NCI tumour cell line growth inhibition, 48 h
Listed compounds paired with reported TGI

{"compound": "CNC(=O)OC(C)CN1c2ccccc2Sc2ccccc21 (stereo unspecified)", "TGI": "> 100 µM"}
{"compound": "CCOC(=O)NC(=O)c1cn(-c2ccc(CCOC(=O)CCCCCCCCC(=O)OCCc3ccc(-n4cc(C(=O)NC(=O)OCC)c(=O)[nH]c4=O)cc3)cc2)c(=O)[nH]c1=O", "TGI": "> 100 µM"}
{"compound": "N#C/C(=C/c1cccs1)c1cccs1", "TGI": "> 100 µM"}
{"compound": "CC(=O)O[C@H]1CC[C@]2(C)[C@H]3C(=O)C=C4[C@@H]5C[C@](C)(C(=O)N6CCCNCC6)CC[C@]5(C)CC[C@@]4(C)[C@]3(C)CC[C@H]2C1(C)C", "TGI": "3.02 µM"}
{"compound": "CC(=O)c1ccc(NCn2nc(-c3ccccc3O)oc2=S)cc1", "TGI": "71.9 µM"}
{"compound": "S=C(NNC1=NCCCCN1)Nc1ccccc1", "TGI": "> 100 µM"}
{"compound": "O=C(O/N=C1/CCC/C1=C\\c1ccccc1)c1ccc(Cl)cc1", "TGI": "> 100 µM"}
{"compound": "O=[N+]([O-])/C=C/c1cccc(F)c1", "TGI": "6.84 µM"}
{"compound": "Cc1nc(SCC(=O)Nc2ccccc2)c2sc(=S)n(-c3ccccc3)c2n1", "TGI": "> 10 µM"}
{"compound": "Cn1cc(C=C(C#N)C#N)c(=O)n(C)c1=O", "TGI": "> 100 µM"}
{"compound": "CCCCCCCCCCCCCC/C(=C/OCC[N+](C)(C)C)OC(C)=O (tested in a mixture with another compound)", "TGI": "14 µM"}
{"compound": "Cc1nnc2nc(-c3ccc(Cl)cc3Cl)cc(-c3ccc(Cl)cc3)n12", "TGI": "> 100 µM"}
{"compound": "CCC(=O)NCC1(c2c[nH]c3ccccc23)SCCS1", "TGI": "> 100 µM"}
{"compound": "CCC(=O)[O-].CCC(=O)[O-].N.N.N.N.[Co+3].[O-][Cl+3]([O-])([O-])[O-]", "TGI": "> 100 µM"}
{"compound": "COc1cccc2c1[C@H](OC)[C@]13O[C@@]1(C2=O)[C@H](O)[C@H](C)[C@@](O)(C(=O)[C@@H]1O[C@H]1C)[C@@H]3O", "TGI": "0.7 µM"}
{"compound": "CC(C)(C)c1cc2c(OP(c3ccccc3)c3ccccc3)c(c1)Cc1cc(C(C)(C)C)cc(c1OP(c1ccccc1)c1ccccc1)Cc1cc(C(C)(C)C)cc(c1OP(c1ccccc1)c1ccccc1)Cc1cc(C(C)(C)C)cc(c1OP(c1ccccc1)c1ccccc1)C2", "TGI": "> 5 µM"}
{"compound": "Nc1nc(Cl)cc(NCCCCO)n1", "TGI": "> 100 µM"}
{"compound": "Cc1cc(C)c(S(=O)(=O)Oc2ccccc2[N+](=O)[O-])c(C)c1", "TGI": "> 100 µM"}
{"compound": "O=C(CCNC(=O)OCc1ccccc1)OCCCNC(=O)OCc1ccccc1", "TGI": "> 100 µM"}
{"compound": "CN(C)CCCNC(=O)c1cc(NC(=O)CCCn2c3ccccc3c3ccccc32)cn1C", "TGI": "> 100 µM"}
{"compound": "O=C(CN1C(=O)c2ccccc2C1=O)OC1C=CCCC1 (stereo unspecified)", "TGI": "> 100 µM"}
{"compound": "COc1cc(C(C)c2cc3c(cc2OCCOCCOc2cc4c(cc2C(C)c2cc(OC)c(OC)c(OC)c2)OCO4)OCO3)cc(OC)c1OC (stereo unspecified)", "TGI": "> 100 µM"}
{"compound": "NC(N)=N/N=C/c1c(-c2ccc(Cl)c(Cl)c2Cl)nc2sccn12", "TGI": "> 100 µM"}
{"compound": "Cc1ccc(-c2n[nH]c(=O)n2N)cc1", "TGI": "> 100 µM"}
{"compound": "CCC1(c2ccncc2)CCC(=O)NC1=O (stereo unspecified)", "TGI": "> 100 µM"}
{"compound": "O=[N+]([O-])/C(Cl)=C(\\Sc1ccccc1)C(Cl)=C(Cl)Cl", "TGI": "3.07 µM"}
